pKd overview
# TARGET ENTITY: T1, human CRTh2 (human, UniProt Q9Y5Y4 1-395)
# T1 construct: also native CRTh2 on primary human basophils, eosinophils and Th2 cells; also called hCRTh2; chemoattractant receptor-homologous molecule expressed on T helper 2 cells
# T1 sequence: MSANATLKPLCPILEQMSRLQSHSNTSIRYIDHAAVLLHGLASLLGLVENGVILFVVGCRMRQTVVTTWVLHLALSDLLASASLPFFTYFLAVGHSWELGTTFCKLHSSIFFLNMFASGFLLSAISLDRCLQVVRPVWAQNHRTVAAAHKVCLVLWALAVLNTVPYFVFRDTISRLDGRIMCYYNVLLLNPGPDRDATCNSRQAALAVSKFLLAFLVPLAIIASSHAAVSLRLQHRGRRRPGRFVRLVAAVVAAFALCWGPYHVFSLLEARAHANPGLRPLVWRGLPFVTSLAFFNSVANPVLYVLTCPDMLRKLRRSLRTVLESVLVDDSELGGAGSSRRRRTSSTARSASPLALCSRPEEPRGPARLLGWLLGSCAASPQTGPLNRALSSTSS
# METHOD: radioligand cell binding assay (Scatchard), Fab, 293 cells expressing human CRTh2
# Protocol: The equilibrium dissociation constants (KD) for anti-CRTH2 antibodies binding to cells expressing recombinant CRTh2 receptor were determined using a radioligand cell binding assay. […] The filters were counted on a Wallac Wizard 1470 gamma counter. The binding data was evaluated using NewLigand software (Genentech), which uses the fitting algorithm of Munson and Rodbard to determine the binding affinity of the anti-CRTh2 antibody (Munson and Rodbard, Anal. Biochem, 1980; 107: 220-239). […]
pKd is defined as minus the log10 of a concentration measured in mol/L.

BINDER	ENDPOINT LABEL	RECORDED NUMBER
h19A2.v60 Fab fragment (Fab, V domains shown, Fab fragment of the humanized IgG; also called h19A2.v60 (Fab fragment of IgG)) VH: EVQLVESGGGLVQPGGSLRLSCAASGFTFSSYLMSWVRQAPGKGLEWVARISNGGSTTDYPGTVEGRFTISRDNSKNTLYLQMNSLRAEDTAVYYCARHRTNWDFDYWGQGTLVTVSS VL: DIQMTQSPSSLSASVGDRVTITCRASENIYYNLAWYQQKPGKAPKLLIYAATQLAEGVPSRFSGSGSGTDYTLTISSLQPEDFATYYCQHFWITPWTFGQGTKVEIK	pKd	7.25
h19A2.v12 Fab fragment (Fab, V domains shown, Fab fragment of the humanized IgG, 125I-labelled in the radioligand assay; also called h19A2.v12 (Fab fragment of IgG); h19A2.12) VH: EVQLVESGGGLVQPGGSLRLSCAASGFTFSSYSMSWVRQAPGKGLEWVAYISNGGSTTDYPGTVEGRFTISRDNSKNTLYLQMNSLRAEDTAVYYCARHRTNWDFDYWGQGTLVTVSS VL: DIQMTQSPSSLSASVGDRVTITCRASENIYWNLAWYQQKPGKAPKLVVYAATQLADGVPSRFSGSGSGTDYTLTISSLQPEDFATYYCQHFWITPWTFGQGTKVEIK	pKd	7.29

Could you tell me which pKd is on file for h19A2.v46 Fab fragment (Fab, V domains shown, Fab fragment of the humanized IgG; also called h19A2.v46 (Fab fragment of IgG)) VH: EVQLVESGGGLVQPGGSLRLSCAASGFTFSSYLMSWVRQAPGKGLEWVARISNGGSTTDYPGTVEGRFTISRDNSKNTLYLQMNSLRAEDTAVYYCARHRTNWDFDYWGQGTLVTVSS VL: DIQMTQSPSSLSASVGDRVTITCRASENIYWNLAWYQQKPGKAPKLVVYAATQLADGVPSRFSGSGSGTDYTLTISSLQPEDFATYYCQHFWITPWTFGQGTKVEIK ?
8.19
